- Test system: MDA-MB-468
- TEST CONTEXT: 72 h
MEASUREMENT TYPE: EC50, CellTiter-Blue viability (nM)

Solved entries (count: 2):
COMPOUND	EC50, CellTiter-Blue viability [nM]
O=C(Cc1ccc(-c2ccc(OCCN3CCOCC3)cc2)cn1)NCc1ccccc1	40.3
COc1cc([C@@H]2c3cc4c(cc3[C@@H](O[C@@H]3O[C@@H]5CO[C@@H](c6cccs6)O[C@H]5[C@H](O)[C@H]3O)[C@H]3COC(=O)[C@H]23)OCO4)cc(OC)c1O [Teniposide]	1080

(1) CCN(CC)CCCC(C)Nc1c2ccc(Cl)cc2nc2ccc(OC)cc12 (stereo not given)
(2) O=C(/C=C/c1cccnc1)NCCCCC1CCN(C(=O)c2ccccc2)CC1
Two entries are listed, 1 and 2 . Which one carries the higher EC50, CellTiter-Blue viability? Please indicate the selected item by its label.
1
